Test system: U2OS
Test: Multiplex assay against U2OS
Assay type: toxicity, cell-based
Settings: human, 12 h, 1 µM, compound concentration 1 uM, replicate 1
# maps each entry to its Population Fragmented Nuclei (%)
measured_metric: Population Fragmented Nuclei (%)

# compound, reported
records = [
    ("COc1cc2nc(N3CCN(C(=O)c4ccco4)CC3)nc(N)c2cc1OC.Cl [PRAZOSIN HYDROCHLORIDE]", 21),
    ("Cc1sc2c(c1C)C(c1ccc(Cl)cc1)=N[C@H](CC(=O)OC(C)(C)C)c1nnc(C)n1-2", 28),
    ("CC(C)(C)c1ccc(CSc2cnn(C(C)(C)C)c(=O)c2Cl)cc1", 28),
    ("CCn1c(-c2nc3cc(C(=O)N4CCCC(N)C4)ccc3n2C)cc2ccccc21.Cl (stereo not drawn)", 22),
    ("COc1ccc2[nH]c(I)c(CCNC(C)=O)c2c1", 19),
    ("Cc1cc(=O)n(C)c2cc(N3C(=O)CC[C@H](NS(=O)(=O)CC(C)C)[C@H]3c3ccc(Cl)cc3)ccc12", 24),
    ("C[C@@H]1CC(=O)Nc2cccc(-c3ccc4c(c3)c(-c3cnn(C)c3)nn4C)c2N1", 20),
    ("Cc1cc(NC(=O)NCCN2CCC(O)(Cc3ccccc3)CC2)c2ccccc2n1", 27),
    ("Nc1nc(CC(=O)Nc2ccc(CCNC[C@H](O)c3ccccc3)cc2)cs1", 24),
    ("CN1CCN(c2ccc(Nc3c4ccccc4nc4ccccc34)cc2)CC1.Cl.Cl.O", 25),
    ("C[C@H](NC(=O)CNC(=O)c1cccc(Cl)c1)c1ccccc1", 26),
    ("COc1c(Nc2ccc(S(C)(=O)=O)nc2C)ncnc1OC1CCN(C(=O)OC(C)C)CC1", 23),
    ("C=CCN1C[C@H](C(=O)N(CCCN(C)C)C(=O)NCC)C[C@@H]2c3cccc4[nH]cc(c34)C[C@H]21", 13),
    ("COc1cc(C(=O)N2CC[C@@H](O)[C@@H](N)C2)cc2nc(-c3cc4ccccc4n3CC3CC3)n(C)c12.Cl", 32),
    ("COCCn1c(C)c(C)s/c1=N\\C(=O)C1C(C)(C)C1(C)C", 24),
    ("COCCCN1CCC(NC(=O)c2cc(Cl)c(N)c3c2OCC3)CC1 [PRUCALOPRIDE]", 30),
    ("N[C@](CC1c2ccccc2Oc2ccccc21)(C(=O)O)[C@H]1C[C@@H]1C(=O)O", 22),
    ("COc1cc2nc(N3CCN(C(=O)COc4c(OC)cccc4C(C)C)CC3)nc(N)c2cc1OC.Cl.Cl", 21),
]
